Target: T1, biotinylated recombinant human IL-12Rβ2 (produced in-house) (human, UniProt Q99665 24-622, randomly biotinylated)
T1 construct: also called hIL-12RB2; human IL-12RB2
T1 sequence: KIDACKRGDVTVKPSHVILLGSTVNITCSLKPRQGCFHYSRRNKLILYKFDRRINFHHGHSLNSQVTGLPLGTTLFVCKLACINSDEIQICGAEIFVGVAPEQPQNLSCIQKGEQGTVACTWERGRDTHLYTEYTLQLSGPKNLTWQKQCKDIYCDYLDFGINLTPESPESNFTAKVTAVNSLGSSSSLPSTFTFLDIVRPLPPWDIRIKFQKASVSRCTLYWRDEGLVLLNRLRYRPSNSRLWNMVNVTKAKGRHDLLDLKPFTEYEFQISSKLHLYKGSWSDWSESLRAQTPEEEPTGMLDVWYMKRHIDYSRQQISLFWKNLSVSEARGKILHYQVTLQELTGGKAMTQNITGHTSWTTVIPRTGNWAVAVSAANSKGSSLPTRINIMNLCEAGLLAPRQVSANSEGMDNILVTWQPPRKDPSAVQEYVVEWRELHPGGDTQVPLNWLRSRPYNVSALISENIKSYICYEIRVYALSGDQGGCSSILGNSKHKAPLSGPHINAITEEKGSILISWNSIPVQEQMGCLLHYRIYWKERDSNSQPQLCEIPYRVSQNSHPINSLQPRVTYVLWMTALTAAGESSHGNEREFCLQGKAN
Assay: ELISA, periplasmic extract on biotinylated human IL-12Rβ2; control streptavidin-coated blocked wells
The reader will find reported ELISA binding hIL-12RB2/control values listed item by item below.

The following binders have reported results that may help.
Binder: anti-IL-12Rβ2 VHH clone 2CAMS52 (VHH, Tested as periplasmic extract; CDR3 group 55; also called 20535) VHH: QVQLQESGGGLVQPGASLRLSCATSGPTLSTYAMGWFRQAPGKEREVVATISWSGGRVTYVDSVKGRFTISRDNAKNTAYLQMNRLRPDDTAVYTCAARESDYGAYDYWGQGTQVTVSS
Measured: 0.969 ratio to control
//
Binder: anti-IL-12Rβ2 VHH clone 2CRM28 (VHH, Tested as periplasmic extract; CDR3 group 40) VHH: QVQLQESGGGLVQPGGSLRLSCAASGRAWNEYNMGWFRQAPGKEREFVALIWWSSGNTYYADSVKGRFTISRDKVKNTVYLQMNSLKPEDTAVYYCAAGPTFNKYEYWGQGTQVTVSS
Measured: 1 ratio to control

The binder listed as anti-IL-12Rβ2 VHH clone 3CAM10 (VHH, Tested as periplasmic extract; CDR3 group 25; also called 20507) VHH: QVQLQESGGGLVQAGGSLRLSCAASGRTFSDYPMAWFRQAPGKEREFVAGISNGGTAYYADSVKGRFTISRDNTRNTVYLQMNRLKVEDTAVYYCAAVHLLSNLRGADPHEADYWGQGTQVTVSS shows ELISA binding hIL-12RB2/control equal to 1.14 ratio to control

Recorded ELISA binding hIL-12RB2/control (binder anti-IL-12Rβ2 VHH clone 2CRM42 (VHH, Tested as periplasmic extract; CDR3 group 18; also called 20449) VHH: QVQLQESGGGLVQPGESLRLSCQASGRTFSNYRMGWFRQAPGKEREFVAGINWDGGHTYYTDSVKGRFTISRDNAKNTVYLQMNSLKPEDTAVYQCAVRVREYGSSRYEDQFDYWGQGTQVTVSS ): 0.942 ratio to control

Entry source: patent US20260209362A1
